# Tested on: PRKCI;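 also: KINOMEscan kinase panel screen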
# condition_details: concentration: 1 μM, replicates: in singlicate; n = 1
Hi, to clarify the labels: true covers %Inh from 10% upward, false covers anything below 10%.

# input Decide: is the reported value of %Inh for O=C(Nc1cccc(-c2nn3ccccc3c2-c2ccnc(Nc3cccc(F)c3)n2)c1)c1c(F)ccc(F)c1Cl equal to or greater than 10%?
# output false

# input Tell me whether %Inh is at least 10% here: O=C(O)C(F)(F)F.O=C(O)C(F)(F)F.O=c1[nH]ccc2nc(N[C@@H]3CCCNC3)nc(Nc3ccc(S(=O)(=O)N4CCOCC4)cc3)c12
# output true

# input Test whether the compound O=C(Nc1ccccc1F)NC1CCN(c2ccnc(Nc3ccc(F)cc3)n2)CC1 records %Inh of 10% or higher.
# output true

# input Determine whether measured %Inh meets or exceeds 10% for Cc1cccc(Nc2nc(N[C@H]3CCNC3)ncc2C(N)=O)c1.Cl
# output false

# input Check if %Inh >= 10% (inclusive). Item: CC(=O)N1CCN(c2ccc(Nc3nccc(-c4sc(C(C)C)nc4-c4cccc(NS(=O)(=O)c5cccc(Cl)c5)c4)n3)cn2)CC1
# output true

# input Does O=C(Nc1cccc(-c2nn3ncccc3c2-c2ccnc(Nc3ccccc3)n2)c1)c1c(F)cccc1F have a reported %Inh of at least 10%?
# output false

# input Record CN1CCN(CCCNc2nccc(-c3c(-c4ccc(F)cc4)nn4cc(C(F)(F)F)ccc34)n2)CC1 ; criterion: %Inh no lower than 10%. Met?
# output true
